Reported values of Binding activity (absorbance at 492 nm) for individual entries
Biological target: Influenza virus A/California/7/2009pdm (H1N1pdm) (Influenza A virus A/California/7/2009pdm (H1N1pdm))
Experiment: ELISA on coated viral particles
Number, no unit, nothing else.

Query: Binding activity (absorbance at 492 nm) lookup needed for Group 55 representative clone F083-305, Fab-cp3-type antibody (Fab, V domains shown) VH: EVQLVESGAEVKKPGSSVKVSCKASGSIFSNYAISWVRQAPGQGLEWMGGIVPMFGTTRFAQKFQGRVTITADESRSTAYMELNNLISEDTAVYYCARAPLIYNWYFDLWGRGTLVTVSS VL: EIVLTQSPSFVSASVGDRVSITCRASQGISSWLAWYQQKPGKAPRLLIYGASNLQSGVPSRFSGSGSGTDYTLTINSLQPEDFATYYCQQARTFPVTFGQGTKLEIK , thanks.
Result: 1.29

Query: Binding activity (absorbance at 492 nm) lookup needed for Group 38 representative clone F082-338, Fab-cp3-type antibody (Fab, V domains shown) VH: QVQLQESGAEVKKPGSSVKVSCKASGGPFRSHAISWVRQAAGQGLEWMGGITAVFGTANYAQKFQGRVTITADESTNIVSMELSSLRSEDTAIYYCARSLGYHTQYNGMDVWGQGTTVTVSS VL: DVVMTQSPSSVSASVGDRVTITCRASQGISSWLAWYQQKPGKAPKLLIYAASSLQSGVPSRFSGSGSGTDFTLTISSLQPEDFATYYCQQANSFPITFGQGTRLEIK , thanks.
Result: 2.82

Query: Binding activity (absorbance at 492 nm) lookup needed for Group 54 representative clone F083-354, Fab-cp3-type antibody (Fab, V domains shown) VH: QVQLVQSGSEVKKPGSSVKVSCKASGGIFNSYGISWVRQAPGQGLEWMGGILAIFGTTNYAQKFQGRVTITADDSSKTVYMELSSLTSEDTAVYYCARGSTYYSSYFDQWGQGTLVTVSS VL: DIQMTQSPSSLSASVGDRVTITCRASQGIRNSLAWYQQKPGQVPKLLIYSATTLRSGVPYRFSGSGSGTDFTLTISGLQPEDVGTYFCHRYDSAPLTFGGGTRVALK , thanks.
Result: 2.54
